# METHOD DESCRIPTION: toxicity / LD 50 in mice
# TEST CONTEXT: mouse, in vivo
Starred links: 1 amine or outer side, 2 acyl side, 3 side chain; linkers in the order of their positions; H or OH if unused. Positions of bridges follow the written chain, without caps; N, C: chain ends. Non-standard residues stand in square brackets, D forms with d. Residues, ends and D or L forms follow the SMILES beside them. Chains are numbered I, II in the order given. Actinocin(9to1) = Cc1c2oc3c(C)ccc(C(=O)[*:1])c3nc-2c(C(=O)[*:2])c(N)c1=O; NMeV = CN[C@H](C(=O)O)C(C)C; Sar = CNCC(=O)O
OBSERVATION TYPE: LD50

Q: Let me know recorded LD50 for Cc1c2oc3c(C)ccc(C(=O)N[C@@H]4C(=O)N[C@H](C(C)C)C(=O)N5CCC[C@H]5C(=O)N(C)CC(=O)N(C)[C@@H](C(C)C)C(=O)O[C@@H]4C)c3nc-2c(C(=O)N[C@@H]2C(=O)N[C@H](C(C)C)C(=O)N3CCC[C@H]3C(=O)N(C)CC(=O)N(C)[C@@H](C(C)C)C(=O)O[C@@H]2C)c(N)c1=O [dactinomycin] (I: T[dV]P[Sar][NMeV] / II: T[dV]P[Sar][NMeV]; ester I:1-I:C, II:1-II:C; linker I:N-II:N via Actinocin(9to1)) , thanks.
Result: 0.5 to 5 mg/kg

Cited source: patent US6015808A
